# study_target: sGC α1/β1 heterodimer (Homo sapiens, UniProt Q02108+Q02153)
# Construct: expressed in transfected cells; host or cells: CHO-K1 (clone #7, CHO-K1/sGC)
# Sequence (Q02108 1-690): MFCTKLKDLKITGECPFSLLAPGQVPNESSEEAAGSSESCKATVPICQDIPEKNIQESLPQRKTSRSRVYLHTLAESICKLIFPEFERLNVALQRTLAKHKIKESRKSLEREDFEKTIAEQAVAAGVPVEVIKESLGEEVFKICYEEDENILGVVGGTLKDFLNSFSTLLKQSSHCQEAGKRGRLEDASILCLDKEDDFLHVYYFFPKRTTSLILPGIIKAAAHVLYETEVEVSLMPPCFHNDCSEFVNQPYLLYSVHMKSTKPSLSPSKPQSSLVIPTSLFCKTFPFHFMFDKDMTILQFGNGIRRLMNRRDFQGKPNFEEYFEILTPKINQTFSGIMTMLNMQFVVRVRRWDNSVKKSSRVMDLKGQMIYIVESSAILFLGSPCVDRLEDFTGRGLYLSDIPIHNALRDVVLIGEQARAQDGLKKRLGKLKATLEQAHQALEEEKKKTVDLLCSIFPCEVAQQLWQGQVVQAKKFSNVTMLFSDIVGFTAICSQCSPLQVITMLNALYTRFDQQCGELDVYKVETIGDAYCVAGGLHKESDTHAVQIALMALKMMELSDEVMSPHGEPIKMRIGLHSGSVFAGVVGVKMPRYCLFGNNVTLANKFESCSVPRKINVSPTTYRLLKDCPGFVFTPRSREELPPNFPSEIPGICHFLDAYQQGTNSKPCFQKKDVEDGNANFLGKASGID
# Sequence (Q02153 1-619): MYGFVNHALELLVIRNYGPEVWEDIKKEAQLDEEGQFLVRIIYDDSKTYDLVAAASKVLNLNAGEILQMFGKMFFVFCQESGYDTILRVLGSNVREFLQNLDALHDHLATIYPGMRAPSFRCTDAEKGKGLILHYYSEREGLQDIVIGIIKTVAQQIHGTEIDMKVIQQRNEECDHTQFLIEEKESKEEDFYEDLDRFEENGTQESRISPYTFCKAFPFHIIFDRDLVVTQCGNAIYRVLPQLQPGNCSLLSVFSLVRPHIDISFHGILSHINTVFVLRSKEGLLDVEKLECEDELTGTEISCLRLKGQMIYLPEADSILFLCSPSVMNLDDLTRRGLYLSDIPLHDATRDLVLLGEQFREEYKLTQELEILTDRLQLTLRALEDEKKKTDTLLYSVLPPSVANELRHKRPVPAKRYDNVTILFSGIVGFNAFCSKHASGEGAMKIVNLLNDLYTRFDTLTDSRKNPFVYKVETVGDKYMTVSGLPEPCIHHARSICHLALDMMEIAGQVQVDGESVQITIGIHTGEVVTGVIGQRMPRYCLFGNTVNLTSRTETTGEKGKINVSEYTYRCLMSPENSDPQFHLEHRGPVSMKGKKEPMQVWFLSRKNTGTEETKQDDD
# assay_explanation: Cell-based sGC functional assay (CASA assay): cGMP generation in CHO-K1/sGC cells, HTRF detection
# conditions_used: CHO-K1, percent activation relative to standard Compound A in CHO-K1/sGC cells; read-out: % Act.
property: Emax (%)

## Input // Input: CC1(c2ccc(Cl)cc2)C(=O)Nc2nc(-c3cn4ccnc4c(C4CCC4)n3)nc(N)c21 (stereo not shown) [Example 15A] . Output its Emax only.
## Output 119

## Input // Input: CCCc1nc(-c2nc(N)c3c(n2)NC(=O)C3(c2ccc(F)c(F)c2)C2CC2)cn2ccnc12 (stereo not shown) [Example 334A] . Output its Emax only.
## Output 111

## Input // Input: CCOC(=O)CCNc1nc(-c2cn3ccnc3c(CCC(F)(F)F)n2)nc2c1C(C)(c1ccc(Cl)cc1)C(=O)N2 (stereo not shown) [Example 298A] . Output its Emax only.
## Output 114

## Input // Input: CC1(c2ccc(Cl)cc2)C(=O)Nc2nc(-c3cn4ccnc4cn3)nc(NCC3CC3)c21 (stereo not shown) [Example 283A] . Output its Emax only.
## Output 163

## Input // Input: CC1(c2ccc(Cl)cn2)C(=O)Nc2nc(-c3cn4ccnc4c(Cc4ccc(F)cc4)n3)nc(N)c21 (stereo not shown) [Example 107A] . Output its Emax only.
## Output 171

## Input // Input: CC(C)Cc1nc(-c2nc(N)c3c(n2)NC(=O)C3(C)c2ccc(OC(F)F)cn2)cn2ccnc12 (stereo not shown) [Example 130A] . Output its Emax only.
## Output 119

## Input // Input: Nc1nc(-c2cn3ccnc3c(CCCC(F)(F)F)n2)nc2c1C(c1ccccn1)(C1CC1)C(=O)N2 (stereo not shown) [Example 383B] . Output its Emax only.
## Output 137
